- Study system: acetylcholine receptor
- Test description: SPR, AchR immobilised on CM5 chip, peptide 10 uM
Measured attribute: Binding affinity (RU)
# unit: RU | format: bare number

KDNGRK [6mer-2-615] :: 27
RKYCHR [6mer-1-1003] :: 24

Qu. // query Binding affinity (RU) value for entry KIKPRR [6mer-2-719]
Ans. 29

Qu. Request the reported Binding affinity (RU) associated with RNTHKR [6mer-2-730]
Ans. 26

Qu. What measured Binding affinity (RU) goes with RMKAKK [6mer-2-661] ?
Ans. 29

Qu. Fill blank: measured Binding affinity (RU) of the binder KNTIRR [6mer-2-693] is ____.
Ans. 16

Qu. Tell me the measured Binding affinity (RU) of KPMDRR [6mer-2-666] , please.
Ans. 25

Qu. Would you mind telling me what Binding affinity (RU) value was observed for KHAHRR [6mer-2-623] ?
Ans. 13

Qu. Binding affinity (RU) lookup needed for RENWKK [6mer-2-677] , thanks.
Ans. 28

Qu. So what does the record say about Binding affinity (RU) for KKFCFR [6mer-1-1030] ?
Ans. 30

Qu. Requested field: Binding affinity (RU). Item: RDCVRK [6mer-2-612]
Ans. 17
